assay: inhibitors of the yeast RAM network, pilot screen, dse1pr::URA3 reporter, 5-FOA selection (AID 869);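 also: 0% = DMSO wells with no growth and 100% = 10 µM 1-NA-PP1 with full growth; RAM network block rescues cells from 5-FOA so hits raise OD615 growth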; details: S. cerevisiae dse1pr::URA3 5-FOA growth, OD615, 2 d; at 10 µM; hits give high values; strain carries analog-sensitive mutant Cbk1 kinase
OBSERVED_PROPERTY: inhibition (%)
Form entry: value (%) — number only.

Worked examples, 5 compounds total:
[[record]]
compound = "O=C(CC1NCCNC1=O)OCCCc1ccccc1 (stereo unspecified)"
unit_string = "%"
meas_value = 1.09

[[record]]
compound = "COc1ccc(C2C(C(=O)Nc3cccc(C)n3)c3ccccc3C(=O)N2C)cc1OC (stereo unspecified)"
unit_string = "%"
meas_value = -0.04

[[record]]
compound = "CN1CCN(S(=O)(=O)c2ccc3c4c(cccc24)C(=O)N3)CC1"
unit_string = "%"
meas_value = 1.18

[[record]]
compound = "CCn1nnc(NC(=O)c2ccc(C(C)(C)C)cc2)n1"
unit_string = "%"
meas_value = 1.79

[[record]]
compound = "COCn1c(-c2cccc(Br)c2)nc2ccccc21"
unit_string = "%"
meas_value = 1.17


Recorded inhibition (compound Cc1cccc(NC(=O)C2CCN(S(=O)(=O)c3cccc4cccnc34)CC2)c1 ): 3.88

Recorded inhibition (compound COC(=O)c1ccc(OCC(O)CN(CC(C)C)CC(C)C)cc1 (stereo unspecified) ): 1.47

Recorded inhibition (compound Cc1nc2sc(C(c3ccccc3)N3CCN(CCO)CC3)c(O)n2n1 (stereo unspecified) ): 1.32

Recorded inhibition (compound O=C(CSc1ccccn1)c1ccc(F)cc1 ): 2.88

Recorded inhibition (compound CCN1CCCC1CNC(=O)c1cc2c(-c3ccc(Cl)cc3)nn(C)c2s1 (stereo unspecified) ): 1.31

Recorded inhibition (compound COc1ccc(OC)c2sc(NC(=O)C(C)C)nc12 ): 1.31

----------
assay: growth suppression of PTEN-deleted HCT116, pilot screen, cell-based, HCT116 clonal line, CellTiter-Glo (AID 824); conditions: 60 h, at 10 µM, hits give low values;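 also: 0% = 20 µM Hyamine control and 100% = vehicle cell control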
Results filed as inconclusive are left out.
# Lookup of reported viability keyed by entry
Form entry: value (%) — number only.

Worked examples, 8 compounds total:
[[record]]
compound = "COC(=O)c1c(NC(=O)C2CC2)sc2c1CCN(C(C)=O)C2"
meas_value = 91.6

[[record]]
compound = "CN(C)c1ccc(NC(=O)c2cccc(N3C(=O)CCC3=O)c2)cc1"
meas_value = 100

[[record]]
compound = "Cc1cc(C)c2c(n1)nn1c(C)c(CCC(=O)NCc3ccco3)c(C)nc21"
meas_value = 94.8

[[record]]
compound = "CCOc1ccc(-n2c(SC(C)C(=O)OC)nc3c(c2=O)SCC3)cc1 (configuration not stated)"
meas_value = 92.2

[[record]]
compound = "CSC1=NCCN1C(=O)Cc1ccc(F)cc1"
meas_value = 103

[[record]]
compound = "CCCCNC(=O)CS(=O)Cc1nc(-c2cccc(Cl)c2)oc1C (configuration not stated)"
meas_value = 97.3

[[record]]
compound = "Cc1sc2nc3ccc(N4CCCC4)nn3c(=O)c2c1C"
meas_value = 75

[[record]]
compound = "Cn1c(NC(=O)c2ccc3c(c2)OCO3)cc(=O)n(C)c1=O"
meas_value = 92.3


Recorded viability (compound CC1CCCCN1CCNC(=O)c1cc2c(-c3ccccc3F)nn(C)c2s1 (configuration not stated) ): 59.6

Recorded viability (compound Cc1nc2sc(C(c3ccccc3)N3CCN(C)CC3)c(O)n2n1 (configuration not stated) ): 103

Recorded viability (compound CCCCOc1ccc(CN2CCC(O)CC2)cc1 ): 100

Recorded viability (compound c1ccc2c(c1)ncc1cccn12 ): 89
